tested on: T-Rex 293 cell line SC3 cells lacking increased expression of androgen receptor protein; experiment: Cellular growth inhibition assay, T-Rex 293 SC3 cells without doxycycline (CellTiter-Glo, 72 hours); assay type: cell-based; conditions: 72 h, T-Rex 293 cell line SC3 cells not exposed to doxycycline (lacking increased androgen receptor expression)
Answer each item with its documented GI50.

MOLECULE	GI50
Cc1sc2c(c1C)C(c1cccc(OCCC3CCN(c4ccc(C(=O)N[C@H]5CC[C@H](Oc6ccc(C#N)c(Cl)c6)CC5)nn4)CC3)c1)=N[C@@H](C)c1nnc(C)n1-2	> 3000 nM
Cc1sc2c(c1C)C(c1ccccc1CC1CC3(CCN(c4ccc(C(=O)NC5CCC(Oc6ccc(C#N)c(Cl)c6)CC5)nn4)CC3)C1)=N[C@@H](C)c1nnc(C)n1-2 (some centres unmarked)	> 3000 nM
[2H]C([2H])(c1ccc(C2=N[C@@H](Cc3ncco3)c3nnc(C)n3-c3sc(C)c(C)c32)cc1)N1CCC2(CCCN(c3ccc(C(=O)N[C@H]4CC[C@H](Oc5ccc(C#N)c(Cl)c5)CC4)nn3)C2)C1 (some centres unmarked)	1500 to 3000 nM
Cc1sc2c(c1C)C(c1ccc(CNC(=O)N3CCC(c4ccc(C(=O)N[C@H]5CC[C@H](Oc6ccc(C#N)c(Cl)c6)CC5)nn4)CC3)cc1)=N[C@@H](Cc1ncco1)c1nnc(C)n1-2	> 3000 nM
CC[C@@H]1N=C(c2ccc(N3CC4(CC(Cc5ccc(C(=O)N[C@H]6CC[C@H](Oc7ccc(C#N)c(Cl)c7)CC6)nn5)C4)C3)cc2)c2c(sc(C)c2C)-n2c(C)nnc21	> 3000 nM

Items follow; give GI50 for each.
1. CCNC(=O)C[C@@H]1N=C(c2ccc(N3CC(N(C4CC4)C4CN(c5ccc(C(=O)N[C@H]6CC[C@H](Oc7ccc(C#N)c(Cl)c7)CC6)nn5)C4)C3)cc2)c2c(sc(C)c2C)-n2c(C)nnc21
2. Cc1sc2c(c1C)C(c1ccccc1N1CCC3(CCCN(c4ccc(C(=O)N[C@H]5CC[C@H](Oc6ccc(C#N)c(Cl)c6)CC5)nn4)C3)CC1)=N[C@@H](C)c1nnc(C)n1-2
3. Cc1sc2c(c1C)C(c1ccc([C@H]3C[C@H]([C@H]4CCCN(c5ccc(C(=O)N[C@H]6CC[C@H](Oc7ccc(C#N)c(Cl)c7)CC6)nn5)C4)C3)cc1)=N[C@@H](Cc1ncco1)c1nnc(C)n1-2
4. Cc1sc2c(c1C)C(c1ccc(C#CC3CC4(C3)CN(c3ccc(C(=O)N[C@H]5CC[C@H](Oc6ccc(C#N)c(Cl)c6)CC5)nn3)C4)cc1)=N[C@@H](Cc1ncco1)c1nnc(C)n1-2
5. CCNC(=O)C[C@@H]1N=C(c2ccc(N(C)CCN3CCN(c4ccc(C(=O)N[C@H]5CC[C@H](Oc6ccc(C#N)c(Cl)c6)CC5)nn4)CC3)cc2)c2c(sc(C)c2C)-n2c(C)nnc21

Data returned:
1: < 500 nM; 2: < 500 nM; 3: > 3000 nM; 4: < 500 nM; 5: 500 to 1500 nM

Items follow; give GI50 for each.
1. Cc1sc2c(c1C)C(c1ccc(C#CC3CC4(C3)CN(c3ccc(C(=O)N[C@H]5CC[C@H](Oc6ccc(C#N)c(Cl)c6)CC5)nn3)C4)nc1)=N[C@H](Cc1ncco1)c1nnc(C)n1-2
2. Cc1sc2c(c1C)C(c1ccc(N3CCC4(CCCN(c5ccc(C(=O)N[C@H]6CC[C@H](Oc7ccc(C#N)c(Cl)c7)CC6)nn5)C4)CC3)nc1)=N[C@@H](C)c1nnc(C)n1-2
3. Cc1sc2c(c1C)C(c1ccc(N3CCC4(CC3)CC(Cc3ccc(C(=O)N[C@H]5CC[C@H](Oc6ccc(C#N)c(Cl)c6)CC5)nn3)C4)cc1)=N[C@@H](C)c1nnc(C)n1-2
4. Cc1sc2c(c1C)C(c1ccc(NCC3CCCN(c4ncc(C(=O)N[C@H]5CC[C@H](Oc6ccc(C#N)c(Cl)c6)CC5)cn4)C3)cc1)=NC(Cc1ncco1)c1nnc(C)n1-2 (some centres unmarked)
5. Cc1sc2c(c1C)C(c1ccc(N3CCC(N4CCN(c5ncc(C(=O)N[C@H]6CC[C@H](Oc7ccc(C#N)c(Cl)c7)CC6)cn5)CC4)CC3)cc1)=NC(Cc1ncco1)c1nnc(C)n1-2 (some centres unmarked)
6. Cc1sc2c(c1C)C(c1ccc(N3CCN(c4ncc(C(=O)N[C@H]5CC[C@H](Oc6ccc(C#N)c(Cl)c6)CC5)cn4)CC(F)(F)C3)cc1)=NC(Cc1ncco1)c1nnc(C)n1-2 (some centres unmarked)
7. CCNC(=O)C[C@@H]1N=C(c2ccc(OCCCN(C)c3ccc(C(=O)N[C@H]4CC[C@H](Oc5ccc(C#N)c(Cl)c5)CC4)nn3)cc2)c2c(sc(C)c2C)-n2c(C)nnc21
8. Cc1sc2c(c1C)C(c1ccc(N3C[C@H]4CN(c5ccc(C(=O)N[C@H]6CC[C@H](Oc7ccc(C#N)c(Cl)c7)CC6)nn5)C[C@H]4C3)c(F)c1)=N[C@@H](C)c1nnc(C)n1-2

Data returned:
["< 500 nM", "> 3000 nM", "> 3000 nM", "> 3000 nM", "< 500 nM", "< 500 nM", "500 to 1500 nM", "< 500 nM"]

Items follow; give GI50 for each.
1. Cc1sc2c(c1C)C(c1ccc(C[C@@H]3CCCN(c4ccc(C(=O)N[C@H]5CC[C@H](Oc6ccc(C#N)c(Cl)c6)CC5)nn4)C3)cc1)=N[C@@H](Cc1ncco1)c1nnc(C)n1-2
2. Cc1sc2c(c1C)C(c1ccc(C(=O)N3CCN(CCc4ccc(C(=O)N[C@H]5CC[C@H](Oc6ccc(C#N)c(Cl)c6)CC5)nn4)CC3)cc1)=N[C@H](Cc1ncco1)c1nnc(C)n1-2

Data returned:
< 500 nM
> 3000 nM
